System: DTH granuloma (DTH GRA) lesion in mBSA-sensitized mice
Test: Delayed Type Hypersensitivity Granuloma Assay (DTH GRA) model for inflammation
Format: in vivo, mouse
Details: Mus musculus, 216 h; 10 MPK, PO; mBSA-sensitized mice, mBSA-soaked filter excised after nine days; read-out: % Inhibition (DTH granuloma)
Label FALSE if inhibition in vivo at 10 mg/kg falls below 40%; label TRUE in every other case.

compound: COC(=O)C(CCC(=O)c1cccc(F)c1)P(=O)(OC)OC (stereo not drawn) [Compound 2]
assigned.label: FALSE
--
compound: COC(=O)C1(P(=O)(OC)OC)CC1C(=O)c1ccccc1 (stereo not drawn) [Compound 10]
assigned.label: TRUE
--
compound: COC(=O)C1(P(=O)(OC)OC)CC(C(=O)c2ccccc2)=NN1 (stereo not drawn) [Compound 9]
assigned.label: FALSE
--
compound: COC(=O)C(CCC(=O)c1cccnc1)P(=O)(OC)OC (stereo not drawn) [Compound 4]
assigned.label: FALSE
--
compound: COC(=O)C(CCc1nc(-c2ccccc2)cc(=O)n1C)P(=O)(OC)OC (stereo not drawn) [Compound 6a]
assigned.label: TRUE
--
compound: COC(=O)C(CCc1nc(-c2ccccc2)cc(=O)n1C)P(=O)(O)O (stereo not drawn) [Compound 6b]
assigned.label: FALSE
--
compound: COC(=O)C(CCc1cc(C)nc2c(C#N)c(C)nn12)P(=O)(OC)OC (stereo not drawn) [Compound 7]
assigned.label: FALSE
--
compound: CCOC(=O)C(CC(C(=O)c1ccccc1)c1ccccc1)P(=O)(OCC)OCC (stereo not drawn) [Compound 3]
assigned.label: FALSE
--
compound: COP(=O)(OC)C(CCc1nc(-c2ccccc2)cc(=O)n1C)C(=O)OC(C)(C)C (stereo not drawn) [Compound 15]
assigned.label: FALSE
